# method.notes: Pharmacokinetic study, single dose PO/SC/IV
# Format: in vivo, female C57BL/6 mice
# protocol.conditions: female, C57BL/6, mouse, plasma; AUClast 50 mg/kg PO vs 5 mg/kg IV
assay.metric: bioavailability (%)

• Cc1cn(-c2cc(CN3CCC[C@H](N)C3)cc(NC(=O)c3cc(-c4ccccc4)ccn3)c2)cn1 [NYX-PCSK9i] = 40

###

# method.notes: Pharmacokinetic study, single dose PO/SC/IV
# Format: in vivo, female C57BL/6 mice
# protocol.conditions: female, C57BL/6, mouse, plasma; 5 mg/kg IV
assay.metric: clearance (mL/min/kg)

* Cc1cn(-c2cc(CN3CCC[C@H](N)C3)cc(NC(=O)c3cc(-c4ccccc4)ccn3)c2)cn1 | 38.2

###

# method.notes: Pharmacokinetic study, single dose PO/SC/IV
# Type: in vivo, female C57BL/6 mice
# protocol.conditions: female, C57BL/6, mouse, plasma, sc, 50 mg/kg, 50 mg/kg SC
assay.metric: AUC(0-t) (ng·h/mL)

• Cc1cn(-c2cc(CN3CCC[C@H](N)C3)cc(NC(=O)c3cc(-c4ccccc4)ccn3)c2)cn1 [NYX-PCSK9i] = 25500

###

# method.notes: Pharmacokinetic study, single dose PO/SC/IV
# Type: in vivo, female C57BL/6 mice
# protocol.conditions: female, C57BL/6, mouse, plasma; 50 mg/kg SC
assay.metric: half-life (min)

• Cc1cn(-c2cc(CN3CCC[C@H](N)C3)cc(NC(=O)c3cc(-c4ccccc4)ccn3)c2)cn1 [NYX-PCSK9i] = 547

###

# method.notes: Pharmacokinetic study, single dose PO/SC/IV
# Type: in vivo, female C57BL/6 mice
# protocol.conditions: female, C57BL/6, mouse, plasma; 5 mg/kg IV; read-out: AUC Infinity
assay.metric: AUC(0-inf) (ng·h/mL)

• Cc1cn(-c2cc(CN3CCC[C@H](N)C3)cc(NC(=O)c3cc(-c4ccccc4)ccn3)c2)cn1 = 2190

###

# method.notes: Pharmacokinetic study, single dose PO/SC/IV
# Type: in vivo, female C57BL/6 mice
# protocol.conditions: female, C57BL/6, mouse, plasma; 5 mg/kg IV
assay.metric: half-life

• Cc1cn(-c2cc(CN3CCC[C@H](N)C3)cc(NC(=O)c3cc(-c4ccccc4)ccn3)c2)cn1 = 7.48 h

###

# method.notes: Pharmacokinetic study, single dose PO/SC/IV
# Type: in vivo, female C57BL/6 mice
# protocol.conditions: female, C57BL/6, mouse, plasma, iv, 5 mg/kg, 5 mg/kg IV
assay.metric: AUC(0-t) (ng·h/mL)

• Cc1cn(-c2cc(CN3CCC[C@H](N)C3)cc(NC(=O)c3cc(-c4ccccc4)ccn3)c2)cn1 [NYX-PCSK9i] = 2010

###

# method.notes: Pharmacokinetic study, single dose PO/SC/IV
# Assay type: in vivo, female C57BL/6 mice
# protocol.conditions: female, C57BL/6, mouse, plasma, po, 50 mg/kg, 50 mg/kg PO
# Experimental: Pharmacokinetic study protocols were reviewed and approved by the Institutional Animal Care and Use Committee of ChemPartner (Shanghai, China) under ethics A998HL0119. […] Bioavailability was determined by comparing the plasma exposure levels (AUClast) of NYX-PCSK9i when given orally with plasma exposure levels obtained via the IV route.
assay.metric: AUC(0-t)

- Cc1cn(-c2cc(CN3CCC[C@H](N)C3)cc(NC(=O)c3cc(-c4ccccc4)ccn3)c2)cn1: ~8100 ng·h/mL

###

# method.notes: Pharmacokinetic study, single dose PO/SC/IV
# Format: in vivo, female C57BL/6 mice
# protocol.conditions: female, C57BL/6, mouse, plasma; 50 mg/kg SC; read-out: MRT Infinity
# Procedure: Pharmacokinetic study protocols were reviewed and approved by the Institutional Animal Care and Use Committee of ChemPartner (Shanghai, China) under ethics A998HL0119. […] Bioavailability was determined by comparing the plasma exposure levels (AUClast) of NYX-PCSK9i when given orally with plasma exposure levels obtained via the IV route.
assay.metric: MRT inf (h)

- Cc1cn(-c2cc(CN3CCC[C@H](N)C3)cc(NC(=O)c3cc(-c4ccccc4)ccn3)c2)cn1: 12.2

###

# method.notes: Pharmacokinetic study, single dose PO/SC/IV
# Type: in vivo, female C57BL/6 mice
# protocol.conditions: female, C57BL/6, mouse, plasma; 50 mg/kg PO; read-out: MRT Infinity
assay.metric: MRT inf

* Cc1cn(-c2cc(CN3CCC[C@H](N)C3)cc(NC(=O)c3cc(-c4ccccc4)ccn3)c2)cn1 [NYX-PCSK9i] | 7.07 h

###

# method.notes: Pharmacokinetic study, single dose PO/SC/IV
# Assay type: in vivo, female C57BL/6 mice
# protocol.conditions: female, C57BL/6, mouse, plasma; 5 mg/kg IV; read-out: MRT Infinity
assay.metric: MRT inf (h)

* Cc1cn(-c2cc(CN3CCC[C@H](N)C3)cc(NC(=O)c3cc(-c4ccccc4)ccn3)c2)cn1 | 6.42

###

# method.notes: Pharmacokinetic study, single dose PO/SC/IV
# Assay type: in vivo, female C57BL/6 mice
# protocol.conditions: female, C57BL/6, mouse, plasma; 50 mg/kg SC; read-out: AUC Infinity
assay.metric: AUC(0-inf) (ng·h/mL)

• Cc1cn(-c2cc(CN3CCC[C@H](N)C3)cc(NC(=O)c3cc(-c4ccccc4)ccn3)c2)cn1 = 30400
